# System: Beta-3 adrenergic receptor (Homo sapiens, UniProt P13945)
# Sequence (P13945 whole entry, looked up): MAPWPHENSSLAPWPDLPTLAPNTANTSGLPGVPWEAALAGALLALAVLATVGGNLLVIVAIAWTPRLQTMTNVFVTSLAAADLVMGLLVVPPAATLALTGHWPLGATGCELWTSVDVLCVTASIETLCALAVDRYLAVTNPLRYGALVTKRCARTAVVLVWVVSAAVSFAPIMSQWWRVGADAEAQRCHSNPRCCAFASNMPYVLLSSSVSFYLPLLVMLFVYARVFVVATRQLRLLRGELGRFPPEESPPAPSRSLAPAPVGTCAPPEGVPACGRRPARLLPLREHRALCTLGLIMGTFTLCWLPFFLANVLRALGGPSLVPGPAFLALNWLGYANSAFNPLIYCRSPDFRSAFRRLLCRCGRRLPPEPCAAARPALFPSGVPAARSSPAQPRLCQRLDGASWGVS
# Assay Method Text: In vitro maximum activation of adenylyl cyclase compared to isoproterenol.
# Assay type: functional
T if Activation is below 90%. F if not; exact matches included in F.

- Smiles Repr: "NC(=O)c1cccc(N/C(=C/[N+](=O)[O-])Nc2ccc(CCNC[C@H](O)c3cccnc3)cc2)c1"
  Class: "F"
- Smiles Repr: "N#CN/C(=N\\c1cccc(I)c1)Nc1ccc(CCNC[C@H](O)c2cccnc2)cc1"
  Class: "T"
- Smiles Repr: "N#CN/C(=N\\c1ccc2c(c1)CCN2c1nc(-c2ccc(OC(F)(F)F)cc2)cs1)Nc1ccc(CCNC[C@H](O)c2cccnc2)cc1"
  Class: "T"
- Smiles Repr: "N#CN/C(=N\\c1ccc(CCNC[C@H](O)c2cccnc2)cc1)Nc1cccc(C(N)=O)c1"
  Class: "T"
- Smiles Repr: "N#CN/C(=N\\c1ccc2c(c1)CCN2c1nc(-c2ccc(OC(F)(F)F)cc2)cs1)Nc1ccc2cc(CCNC[C@H](O)c3cccnc3)ccc2c1"
  Class: "T"
- Smiles Repr: "CCCCCCCCc1csc(N2CCc3ccc(N/C(=N/c4ccc(CCNC[C@H](O)c5cccnc5)cc4)NC#N)cc32)n1"
  Class: "T"
- Smiles Repr: "O=[N+]([O-])/C=C(\\Nc1ccc(CCNC[C@H](O)c2cccnc2)cc1)Nc1cccc(I)c1"
  Class: "F"
- Smiles Repr: "O=[N+]([O-])/C=C(\\Nc1ccc(CCNC[C@H](O)c2cccnc2)cc1)Nc1cccc(Oc2ccccc2)c1"
  Class: "F"

###

# System: UniProtKB P13945
# Assay Method Text: In vitro maximum activation of adenylyl cyclase compared to isoproterenol.
# Type: functional

- Smiles Repr: "O=[N+]([O-])/C=C(\\Nc1ccc(CCNC[C@H](O)c2cccnc2)cc1)Nc1ccc2ccccc2c1"
  Activation (%): 74
- Smiles Repr: "N#CN/C(=N\\c1cccc2ccccc12)Nc1ccc(CCNC[C@H](O)c2cccnc2)cc1"
  Activation (%): 64
- Smiles Repr: "N#CN/C(=N\\c1cccc(Oc2ccccc2)c1)Nc1ccc(CCNC[C@H](O)c2cccnc2)cc1"
  Activation (%): 70
- Smiles Repr: "CCCCCCCCc1csc(N2CCc3c(N/C(=N/c4ccc(CCNC[C@H](O)c5cccnc5)cc4)NC#N)cccc32)n1"
  Activation (%): 62
- Smiles Repr: "O=[N+]([O-])/C=C(\\Nc1ccc(CCNC[C@H](O)c2cccnc2)cc1)Nc1cccc2ccccc12"
  Activation (%): 79
- Smiles Repr: "CCCCCCCCc1csc(N2CCc3cc(N/C(=N/c4ccc(CCNC[C@H](O)c5cccnc5)cc4)NC#N)ccc32)n1"
  Activation (%): 39
- Smiles Repr: "N#CN/C(=N\\c1cccc2c1CCN2c1nc(-c2ccc(OC(F)(F)F)cc2)cs1)Nc1ccc(CCNC[C@H](O)c2cccnc2)cc1"
  Activation (%): 72

###

Overview of recorded IC50 for various molecules
# System: Beta-1 adrenergic receptor (Homo sapiens)
# Sequence (P08588 whole entry): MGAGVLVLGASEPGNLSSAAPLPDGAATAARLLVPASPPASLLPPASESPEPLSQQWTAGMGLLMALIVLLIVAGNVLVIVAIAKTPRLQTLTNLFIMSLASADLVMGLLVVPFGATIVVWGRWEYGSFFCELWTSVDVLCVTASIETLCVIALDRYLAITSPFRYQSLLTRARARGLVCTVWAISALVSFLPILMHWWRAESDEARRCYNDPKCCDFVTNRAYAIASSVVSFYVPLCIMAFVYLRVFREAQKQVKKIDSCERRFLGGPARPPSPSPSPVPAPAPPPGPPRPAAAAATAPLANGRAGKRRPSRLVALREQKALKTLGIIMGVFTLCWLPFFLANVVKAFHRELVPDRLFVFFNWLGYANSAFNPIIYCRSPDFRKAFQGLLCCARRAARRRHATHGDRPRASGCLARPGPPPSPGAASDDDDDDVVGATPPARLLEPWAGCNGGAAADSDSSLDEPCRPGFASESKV
# Assay Method Text: Binding affinity for human Beta-1 adrenergic receptor using [125I]iodocyanopindolol as radioligand in CHO cells

- Smiles Repr: "CCCCCCCCc1csc(N2CCc3ccc(N/C(=N/c4ccc(CCNC[C@H](O)c5cccnc5)cc4)NC#N)cc32)n1"
  Unit Annotation: "nM"
  IC50: 74
- Smiles Repr: "N#CN/C(=N\\c1ccc(CCNC[C@H](O)c2cccnc2)cc1)Nc1cccc(C(N)=O)c1"
  Unit Annotation: "nM"
  IC50: 980
- Smiles Repr: "O=[N+]([O-])/C=C(\\Nc1ccc(CCNC[C@H](O)c2cccnc2)cc1)Nc1cccc2ccccc12"
  Unit Annotation: "nM"
  IC50: 1800
- Smiles Repr: "N#CN/C(=N\\c1ccc(I)cc1)Nc1ccc(CCNC[C@H](O)c2cccnc2)cc1"
  Unit Annotation: "nM"
  IC50: 730
- Smiles Repr: "N#CN=C(Nc1ccc2c(c1)CCN2c1nc(-c2ccc(OC(F)(F)F)cc2)cs1)Nc1ccc2cc(CCNC[C@H](O)c3cccnc3)ccc2c1"
  Unit Annotation: "nM"
  IC50: 2300
- Smiles Repr: "NC(=O)c1cccc(N/C(=C/[N+](=O)[O-])Nc2ccc(CCNC[C@H](O)c3cccnc3)cc2)c1"
  Unit Annotation: "nM"
  IC50: 790

Value source: ChEMBL document CHEMBL1134823
